# assayed.target: hTRPV3 (Homo sapiens)
# Construct: The commercially available plasmid with the full-length cDNA of hTRPV3 (791 aa) (NM_001258205.2)
# Sequence (Q8NET8 1-791 isoform Q8NET8-2): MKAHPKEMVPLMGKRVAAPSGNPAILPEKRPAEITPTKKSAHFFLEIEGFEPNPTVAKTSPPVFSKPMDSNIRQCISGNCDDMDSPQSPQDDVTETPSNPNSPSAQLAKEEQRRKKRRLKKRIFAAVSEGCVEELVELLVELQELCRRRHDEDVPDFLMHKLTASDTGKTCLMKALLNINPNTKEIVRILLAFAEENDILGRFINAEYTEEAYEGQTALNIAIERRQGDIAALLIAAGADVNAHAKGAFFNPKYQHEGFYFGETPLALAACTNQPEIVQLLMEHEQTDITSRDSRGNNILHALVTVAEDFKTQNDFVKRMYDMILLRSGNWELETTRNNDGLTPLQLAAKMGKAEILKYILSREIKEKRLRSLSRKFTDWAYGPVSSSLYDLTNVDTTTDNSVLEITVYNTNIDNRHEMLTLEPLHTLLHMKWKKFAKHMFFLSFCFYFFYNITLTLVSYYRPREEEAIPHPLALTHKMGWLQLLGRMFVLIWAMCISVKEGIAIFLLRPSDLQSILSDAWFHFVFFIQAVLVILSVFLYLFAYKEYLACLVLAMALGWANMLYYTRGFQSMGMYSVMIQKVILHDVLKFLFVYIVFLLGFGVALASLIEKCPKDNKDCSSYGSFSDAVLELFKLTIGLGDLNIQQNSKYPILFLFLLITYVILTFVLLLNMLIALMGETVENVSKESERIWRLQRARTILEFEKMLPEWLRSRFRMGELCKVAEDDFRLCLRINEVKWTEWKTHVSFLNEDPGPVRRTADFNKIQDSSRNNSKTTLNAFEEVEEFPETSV
# assay.details: Whole-cell patch-clamp recording of hTRPV3 current in transfected HEK293T cells (2-APB induced)
# assay.context: current induced by 300 μM 2-APB, compounds tested up to 10 μM, room temperature
recorded.endpoint: IC50

[
  {
    "compound": "CCCCCCC1(C)Oc2cc(C(F)(F)F)ccc2-c2nc(NC(=O)c3c(OC)ncnc3OC)sc21 (centres unmarked) [compound 41]",
    "assayed.target": "hTRPV3 (Homo sapiens)",
    "observed": "100 to 1000 nM"
  },
  {
    "compound": "CCC1(CC)Oc2cc(C(F)(F)F)ccc2-c2nc(NC(=O)c3c(OC)nc(OC)nc3OC)sc21 [compound 158]",
    "assayed.target": "hTRPV3 (Homo sapiens)",
    "observed": "≥ 10000 nM"
  },
  {
    "compound": "COc1ncnc(OC)c1C(=O)Nc1nc2c(s1)-c1ccc(C(F)(F)F)cc1OC21CC[S+]([O-])CC1 (centres unmarked) [compound 95]",
    "assayed.target": "hTRPV3 (Homo sapiens)",
    "observed": "1000 to 10000 nM"
  },
  {
    "compound": "COc1ncnc(OC)c1C(=O)Nc1nc2c(s1)C1(COC1)Oc1cc(C(C)(C)O)ccc1-2 [compound 139]",
    "assayed.target": "hTRPV3 (Homo sapiens)",
    "observed": "≥ 10000 nM"
  }
]

Qu. // returns reported IC50 for input COc1ncnc(OC)c1C(=O)Nc1nc2c(ccc3cc(C#N)ccc32)s1 [compound 71]
Ans. ≥ 10000 nM

Qu. // returns reported IC50 for input COc1ncnc(OC)c1C(=O)Nc1nc2c(s1)COc1cc(C(F)(F)F)ccc1-2 [compound 1]
Ans. 100 to 1000 nM

Qu. // returns reported IC50 for input COc1ncnc(OC)c1C(=O)Nc1nc2c(s1)C1(COC1)Oc1cc(C3CC3)ccc1-2 [compound 138]
Ans. 100 to 1000 nM

====

# IC50 annotations
# assayed.target: hTRPV3 (Homo sapiens)
# Construct: The commercially available plasmid with the full-length cDNA of hTRPV3 (791 aa) (NM_001258205.2)
# assay.details: Whole-cell patch-clamp recording of hTRPV3 current in transfected HEK293T cells (2-APB induced)
# assay.context: current induced by 300 μM 2-APB, compounds tested up to 10 μM, room temperature

[
  {
    "compound": "COc1ncnc(OC)c1C(=O)Nc1nc2c(s1)COc1ccc(C)cc1-2",
    "IC50": "≥ 10000 nM"
  },
  {
    "compound": "COc1ncnc(OC)c1C(=O)Nc1nc2c([se]1)C1(CN(C(=O)OC(C)(C)C)C1)Oc1cc(C(F)(F)F)ccc1-2",
    "IC50": "100 to 1000 nM"
  },
  {
    "compound": "CCC1(CC)Oc2cc(C(F)(F)F)ccc2-c2nc(N3CN(C)c4ncnc(OC)c4C3=O)sc21",
    "IC50": "≥ 10000 nM"
  },
  {
    "compound": "COc1ncnc(OC)c1C(=O)Nc1nc2c(s1)C1(CN(C(=O)OC(C)C)C1)Oc1cc(C(F)(F)F)ccc1-2",
    "IC50": "100 to 1000 nM"
  }
]

Qu. // returns reported IC50 for input CCC1(CC)Oc2cc(C(F)(F)F)ccc2-c2nc(NC(=O)c3c(C)ncnc3OC)sc21
Ans. 100 to 1000 nM

Qu. // returns reported IC50 for input COc1ncnc(OC)c1C(=O)Nc1nc2c(s1)C1(CCNCC1)Oc1cc(C(F)(F)F)ccc1-2
Ans. ≥ 10000 nM

Qu. // returns reported IC50 for input CNC(=O)C1CCC2(CC1)Oc1cc(C(F)(F)F)ccc1-c1nc(NC(=O)c3c(OC)ncnc3OC)sc12 (stereo not shown)
Ans. 1000 to 10000 nM

Hello, the source for this data is patent US20260217697A1, in case you need it.
